Assign hGCGR + 20% plasma EC50 to each entry below.
Biological target: human glucagon receptor (human, UniProt P47871 26-477)
Sequence (P47871 26-477): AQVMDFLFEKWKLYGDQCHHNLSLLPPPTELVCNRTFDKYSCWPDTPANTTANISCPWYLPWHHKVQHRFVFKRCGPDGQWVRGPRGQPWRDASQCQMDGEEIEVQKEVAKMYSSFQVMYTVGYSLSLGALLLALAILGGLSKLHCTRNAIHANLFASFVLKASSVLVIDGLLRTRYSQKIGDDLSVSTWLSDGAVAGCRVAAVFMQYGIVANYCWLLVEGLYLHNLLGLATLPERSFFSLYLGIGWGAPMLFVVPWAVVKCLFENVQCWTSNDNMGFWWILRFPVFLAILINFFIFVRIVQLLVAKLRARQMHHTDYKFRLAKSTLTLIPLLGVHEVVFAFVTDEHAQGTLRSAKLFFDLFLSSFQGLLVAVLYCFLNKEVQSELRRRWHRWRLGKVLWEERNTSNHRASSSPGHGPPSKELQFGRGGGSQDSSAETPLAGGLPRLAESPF
Test: cell-based or functional assay
*1 amine or outer side, *2 acyl side, *3 side chain or, on linkers, in order; H or OH if unused. Bridges are numbered along the chain shown (N, C = ends). Where no end group is shown, it is not given here. [ ]: non-standard residue; d: D form. Oxa12‑cholesterol = C10 = Cys(oxa12-cholesterol); γGlu = O=C(O)[C@H](CCC(=O)[*:2])N[*:1]; Aib = CC(C)(N)C(=O)O
Report only the number, with the unit nM understood.

What value of hGCGR + 20% plasma EC50 has been reported for the following binder? HSQGTFTSDYSKYLDSRRAQDFVQWLMNTKEEC (D-Ser at position 2; gamma-glutamic acid at positions 31 and 32; C10 = Cys(oxa12-cholesterol) at position 33; C-terminal COOH) [OXM399] 0.4

For HXQGTFTSDYSKYLDSRRAQDFVQWLMNTKEEC (Acb (1-amino-1-cyclobutane carboxylic acid) at position 2; gamma-glutamic acid at positions 31 and 32; C10 = Cys(oxa12-cholesterol) at position 33; C-terminal COOH) [OXM401] then? 0.3

Repeat for the following binder: HSQGTFTSDYSKYLDSRRAQDFVQWLMNTKEEC (D-Ser at position 2; gamma-glutamic acid at positions 31 and 32; C7 = Cys(Oxa4-cholesterol) at position 33; C-terminal COOH) [OXM380] 3.4

Moving on to H[Aib]QGTFTSDYSKYLDERRAKDFVQWLMNTK[γGlu][γGlu]C(Oxa12‑cholesterol)-OH (lactam 16-20) [OXM395] 119

The reported numbers originate from patent US20120165503A1.
